Experiment: Water solubility by UV spectrophotometric method
Assay type: physicochemical
Conditions: deionized water, stirred approximately 72 hrs., UV; read-out: solubility of this compound
experimental-readout: solubility at 72 h (µg/mL)

compound	unit-info	val
Cc1c(Cl)sn(-c2ccc(F)cc2)c1=O [Example 115]	µg/mL	33

###

Experiment: Amount of toxicant remaining in the test container after membrane diffusion raft tests
Assay type: physicochemical
Set-up: key: 0: empty or trace; +: some; + +: ample
Settings: after completion of membrane diffusion raft tests
experimental-readout: Contents at the end of test (amount of toxicants remaining in the test container)

compound	val
Cc1ccc(-n2sc(Cl)c(C)c2=O)cc1C	+ +
CCCCCCCCn1sc(Cl)c(C)c1=O	0
CCCCn1sccc1=O	0
O=c1c(Br)c(Cl)sn1CCc1ccc(Cl)cc1	+
O=c1c(Br)csn1CCc1ccccc1	+
CCCCCCCCn1sc(Cl)cc1=O	0
O=c1ccsn1Cc1ccccc1	0
Cc1ccccc1-n1sc(Cl)c(C)c1=O	+
CCCCCCCCn1sc(Br)c(C)c1=O	0
O=c1c(Br)csn1C1CCCCC1	+
Cc1c(Cl)sn(-c2ccc(Cl)cc2)c1=O	+ +
CCCCCCCCCCCCCCn1sc(Cl)c(C)c1=O	+ +
Cc1csn(-c2ccc(Cl)c(Cl)c2)c1=O	+ +
CCCCCCCCCCCCn1sc(Cl)cc1=O	+
O=c1c(Cl)c(Cl)sn1Cc1ccccc1	+
O=c1c(Cl)c(Cl)sn1-c1cccc(Cl)c1	+ +
CCCCCCCCCCCCCCCCCCn1sc(Cl)cc1=O	+ +
CCCCCCCCCCCCCCn1sccc1=O	+ +
CCCCCCn1scc(Br)c1=O	+
O=c1cc(Cl)sn1CCc1ccccc1	0
CCOC(=O)c1ccc(-n2sc(Cl)c(C)c2=O)cc1	+ +
CCCCCCCCn1scc(Cl)c1=O	+
CCCCC(CC)Cn1sc(Cl)c(Cl)c1=O (stereo not shown)	+
CCCCCCCCCCCCn1sc(Br)c(Br)c1=O	+ +
COc1ccc(-n2sc(Cl)cc2=O)cc1	+ +
O=c1cc(Cl)sn1-c1ccc(Br)cc1	+ +
O=c1c(Br)csn1Cc1ccc(Cl)cc1	+ +
O=c1c(Br)c(Br)sn1Cc1ccc(Cl)cc1	+ +
O=c1cc(Cl)sn1-c1ccc(Cl)c(Cl)c1	+ +
Cc1ccc(-n2sc(Cl)c(Cl)c2=O)cc1Cl	+ +
Cc1c(Cl)sn(-c2ccc(O)cc2)c1=O	+ +
Cc1c(Cl)sn(-c2ccc(Cl)c(C(F)(F)F)c2)c1=O	+ +
CC(C)(C)CC(C)(C)n1sccc1=O	0
O=c1cc(Cl)sn1-c1ccccc1	+
O=c1cc(Cl)sn1Cc1ccc(Cl)cc1	+ +
CCCCn1sc(Cl)c(Br)c1=O	0
O=c1c(Cl)c(Cl)sn1-c1ccc([N+](=O)[O-])cc1	+ +
Cc1c(Cl)sn(CCc2ccccc2)c1=O	+
CCCCCCCCn1sc(Br)c(Br)c1=O	0
O=c1ccsn1CCc1ccc(Cl)cc1	0
CCCCCCCCCCCCCCCCn1sc(Cl)cc1=O	+ +
Cc1c(Cl)sn(-c2ccc(I)cc2)c1=O	+ +
O=c1cc(Cl)sn1-c1ccc(Cl)cc1	+ +
Cc1cccc(-n2sc(Cl)c(C)c2=O)c1	+ +
CCCCC(CC)Cn1sc(Cl)cc1=O (stereo not shown)	0
CCCCCCn1sc(Cl)c(Br)c1=O	0

###

Assay: Water solubility by UV spectrophotometric method
Assay type: physicochemical
Settings: water, saturated solution; Table 1; read-out: Solubility by UV method
Param threshold (80 µg/mL) applies to solubility; output Condition met when value >= threshold, Condition not met when value < threshold.

molecule	label-class
O=c1c(Br)csn1Cc1ccc(Cl)cc1	Condition not met
CCCCCCCCCCCCCCCCn1sc(Cl)c(Cl)c1=O	Condition not met
CC(C)(C)CC(C)(C)n1sc(Cl)c(Cl)c1=O	Condition not met
CC(C)(C)CC(C)(C)n1sc(Cl)cc1=O	Condition met
O=c1c(Br)c(Cl)sn1C1CCCCC1	Condition not met
CCCCC(CC)Cn1sc(Cl)c(Cl)c1=O (stereo not shown)	Condition not met
CCC(C)CC(CC)n1sc(Cl)c(Cl)c1=O (stereo not shown)	Condition met
CCCCC(CC)Cn1sc(Cl)c(C)c1=O (stereo not shown)	Condition met
Cc1c(Cl)sn(-c2ccccc2)c1=O	Condition met
CCCCCCn1sc(Cl)cc1=O	Condition met
COc1c(Cl)cccc1-n1sc(Cl)cc1=O	Condition not met
CCCCCCn1sccc1=O	Condition met
O=c1ccsn1-c1ccc(Cl)cc1	Condition met
CC(C)CCCC(C)n1sc(Cl)c(Cl)c1=O (stereo not shown)	Condition not met
Cc1c(Cl)sn(-c2cccc(Cl)c2)c1=O	Condition not met
CCCCCCCCn1scc(Br)c1=O	Condition not met
O=c1c(Cl)c(Cl)sn1-c1ccc(Cl)cc1	Condition not met
O=c1c(Cl)c(Cl)sn1Cc1ccccc1	Condition not met
CCCCCCn1sc(Cl)c(Br)c1=O	Condition met
O=c1cc(Cl)sn1CCc1ccccc1	Condition met
CCCCCCC(C)n1sc(Cl)c(Cl)c1=O (stereo not shown)	Condition not met
O=c1c(Br)c(Cl)sn1-c1ccc(Cl)cc1	Condition not met
CCCCCCCCn1scc(Cl)c1=O	Condition not met
Cc1c(Cl)sn(-c2ccc(Br)cc2)c1=O	Condition not met
O=c1cc(Cl)sn1-c1ccc(Cl)cc1	Condition not met
O=c1c(Br)csn1C1CCCCC1	Condition met
Cc1c(Cl)sn(-c2cc(Cl)cc(Cl)c2)c1=O	Condition not met
O=c1cc(Cl)sn1Cc1ccc(Cl)cc1	Condition not met
Cc1ccc(-n2sc(Cl)c(C)c2=O)cc1	Condition not met
Cc1c(Cl)sn(-c2ccc(Cl)cc2)c1=O	Condition not met
O=c1cc(Cl)sn1C1CCCCC1	Condition met
CC1CC(n2sc(Cl)c(Cl)c2=O)CC(C)(C)C1 (stereo not shown)	Condition not met
COc1cc(Cl)ccc1-n1sc(Cl)cc1=O	Condition not met
Cc1c(Cl)sn(-c2ccc(Cl)c(Cl)c2)c1=O	Condition not met
O=c1c(Cl)c(Cl)sn1Cc1ccc(Cl)cc1	Condition not met
O=c1ccsn1Cc1ccccc1	Condition met
O=c1c(Cl)c(Cl)sn1-c1ccccc1	Condition not met
CC(C)(C)CC(C)(C)n1sccc1=O	Condition met
CCCCCCCCCCCCCCn1sc(Cl)c(Cl)c1=O	Condition not met
CCCCCCC(C)n1sc(Cl)cc1=O (stereo not shown)	Condition met
Cc1c(Cl)sn(Cc2ccc(Cl)cc2)c1=O	Condition not met
CCCCCCCCn1sc(Br)c(Br)c1=O	Condition not met
CCCCn1sc(Cl)c(Br)c1=O	Condition met
Cc1c(Cl)sn(CCc2ccccc2)c1=O	Condition met

###

System: weed
Experiment: Paint panel / plaque tests against weed (Table 2)
Assay type: in vivo, grass-like algal growth common in sea water
Design: key: high performance; medium performance; low performance; poor or unacceptable performance
Details: April to November, 1975
experimental-readout: Effectiveness in paint CR/R (chlorinated rubber/rosin)

compound-string	val
Cc1c(Cl)sn(-c2ccc(Cl)cc2)c1=O	h
O=c1c(Cl)c(Cl)sn1-c1ccccc1	h
O=c1c(Cl)c(Cl)sn1Cc1ccc(Cl)cc1	h
CCCCCCCCCCn1sc(Cl)c(Cl)c1=O	p
O=c1c(Cl)c(Cl)sn1CCc1ccccc1	h
O=c1c(Cl)c(Cl)sn1Cc1ccccc1	h

###

System: barnacle
Assay: Membrane Diffusion Raft Trials, barnacle control
Assay type: in vivo, barnacles
Conditions: membrane test, average 15 to 16 weeks of immersion
experimental-readout: Barnacle Control

compound-string	val
CC(C)(C)CC(C)(C)n1sc(Cl)c(Cl)c1=O	+
Cc1c(Cl)sn(-c2ccc(Cl)c(Cl)c2)c1=O	0
CCCCCCCCn1sc(Cl)c(Br)c1=O	+ +
Cn1sc(Br)c(Br)c1=O	0
O=c1cc(Cl)sn1Cc1ccc(Cl)cc1	+
O=c1c(Br)c(Cl)sn1CCc1ccc(Cl)cc1	0
O=c1cc(Cl)sn1CCc1ccccc1	0
CCCCCCn1scc(Br)c1=O	+ +
Cc1c(Cl)cccc1-n1sc(Cl)c(Cl)c1=O	0
Cc1c(Cl)sn(-c2ccc(Cl)cc2)c1=O	+ +
O=c1c(Br)c(Cl)sn1-c1ccc(Cl)cc1	+ +

###

Assay: Water solubility by UV spectrophotometric method
Type: physicochemical
Settings: water
experimental-readout: solubility

compound	experimental-readout	val
O=c1c(Cl)c(Cl)sn1C1CCCCC1 [Example 67]	solubility	48 µg/mL
CCCCCCCCn1sccc1=O [Example 3, 2-n-octyl-3-isothiazolone]	solubility	481 µg/mL

###

Test system: barnacle
Assay: Membrane Diffusion Raft Trials, barnacle control
Format: in vivo, barnacles
Conditions: membrane test, average 15 to 16 weeks of immersion
A collection of molecules and their measured Barnacle Control

molecule	Barnacle Control
Cc1csn(-c2ccc(Cl)c(Cl)c2)c1=O [Example 140]	0
CCCCCCCCn1sc(Br)c(Br)c1=O [Example 95]	0
CCCCCCCCCCCCCCCCn1sc(Cl)c(Cl)c1=O [Example 66]	0
O=c1cc(Cl)sn1-c1ccc(Cl)c(C(F)(F)F)c1 [Example 40]	0
CCCCCCCCCCCCCCn1sc(Cl)c(Cl)c1=O [Example 65]	0
O=c1c(Cl)c(Cl)sn1-c1cc(Cl)cc(Cl)c1 [Example 77]	0
Cc1c(Cl)sn(-c2ccccc2C(F)(F)F)c1=O [Example 128]	0
O=c1ccsn1-c1ccccc1 [Example 11]	0
CCCCCCCCn1sccc1=O [Example 3, 2-n-octyl-3-isothiazolone]	0
O=c1c(Cl)c(Cl)sn1-c1ccc(Cl)cc1 [Example 75]	0
